# koff listing for each entry below
- assaySystem: T1, cynomolgus PD-1 (#PD1-C52H5, AcroBiosystems) (cynomolgus monkey, UniProt B0LAJ3 25-170)
- T1 construct: bought; also called cynomolgus monkey PD-1; not shown: the vendor's tag on the recombinant protein (AcroBiosystems #PD1-C52H5)
- T1 sequence (B0LAJ3 entry or part of it limits assumed, form in doubt): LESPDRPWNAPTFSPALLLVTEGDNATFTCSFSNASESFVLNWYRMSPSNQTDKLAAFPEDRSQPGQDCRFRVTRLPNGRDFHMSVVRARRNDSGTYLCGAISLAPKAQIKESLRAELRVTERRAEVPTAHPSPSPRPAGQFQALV
- assayRemarks: SPR, PD-1 on captured IgG1
Could you give me the number in s⁻¹? Just the number is fine.

ICW519 (antibody, human IgG1, V domains shown, human IgG1) VH: VQLVQSGAEVKKPGASVKVSCKASGYTFTNFYIHWVRQAPGQGLEWMGSIYPNYGITAYNQKFQDRVTMTVDTSTSTAYMELRSLRSDDTAVYYCARGYSYAMDYWGQGTTVTVSS VL: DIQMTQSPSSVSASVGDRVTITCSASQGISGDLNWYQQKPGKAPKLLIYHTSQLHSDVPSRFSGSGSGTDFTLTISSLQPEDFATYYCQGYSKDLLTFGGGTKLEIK = 0.000176

Shifting focus to the binder that follows.
Query block: // returns reported koff for input OKM590 (antibody, human IgG1, V domains shown, human IgG1) VH: VQLVQSGAEVKKPGASVKVSCKASGYTFTNFYIHWVRQAPGQGLEWMGSIYPNYGITAYNQKFKDRVTMTVDTSTSTAYMELRSLRSDDTAVYYCARGYSYAMDVWGQGTTVTVSS VL: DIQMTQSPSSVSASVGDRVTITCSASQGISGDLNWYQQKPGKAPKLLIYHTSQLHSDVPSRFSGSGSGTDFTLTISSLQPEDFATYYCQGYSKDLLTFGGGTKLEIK
Result block: 0.000345
